Data origin: ChEMBL document CHEMBL4138209

Measurement record for Carbonic anhydrase 12 (Homo sapiens, UniProt O43570); quantity recorded: Ki.
Respond numerically; units are nM and should not be typed.

compound=Cc1c(O)ccc2c(-c3ccccc3)cc(=O)oc12 observed_property=Ki recorded_value=402
compound=O=c1cc(-c2ccc([N+](=O)[O-])cc2)c2ccc(O)cc2o1 observed_property=Ki recorded_value=6.5
compound=CC(=O)Oc1ccc2ccc(=O)oc2c1 observed_property=Ki recorded_value=573

Now consider a different compound.
Entry O=c1ccc2cc(O)ccc2o1 [6-HYDROXYCOUMARIN] , Ki reported as 33.9

----------
Measurement record for Carbonic anhydrase 9 (Homo sapiens, UniProt Q16790); quantity recorded: Ki.
Respond numerically; units are nM and should not be typed.

molecule=CC(=O)Oc1cc2ccc(=O)oc2cc1OC(C)=O recorded_value=116

Form field, Ki with Carbonic anhydrase 9 (Homo sapiens, UniProt Q16790), item Nc1ccc(-c2cc(=O)oc3cc(O)ccc23)cc1 : 21.6

Form field, Ki with Carbonic anhydrase 9 (Homo sapiens, UniProt Q16790), item O=c1ccc2cc(O)ccc2o1 [6-HYDROXYCOUMARIN] : 30.5

Form field, Ki with Carbonic anhydrase 9 (Homo sapiens, UniProt Q16790), item Cc1c(O)ccc2c(-c3ccc(Cl)cc3)cc(=O)oc12 : 35.3

Form field, Ki with Carbonic anhydrase 9 (Homo sapiens, UniProt Q16790), item Cc1cccc(-c2cc(=O)oc3c(C)c(O)ccc23)c1 : 37.4

Form field, Ki with Carbonic anhydrase 9 (Homo sapiens, UniProt Q16790), item Cc1ccc(-c2cc(=O)oc3cc(O)ccc23)cc1 : 35.8

Form field, Ki with Carbonic anhydrase 9 (Homo sapiens, UniProt Q16790), item Cc1ccc(-c2cc(=O)oc3c(C)c(O)ccc23)cc1 : 38.2

Form field, Ki with Carbonic anhydrase 9 (Homo sapiens, UniProt Q16790), item CC(=O)Oc1ccc2oc(=O)ccc2c1 : 23.1

Form field, Ki with Carbonic anhydrase 9 (Homo sapiens, UniProt Q16790), item Cc1c(O)ccc2c(-c3ccccc3Cl)cc(=O)oc12 : 27.5

Form field, Ki with Carbonic anhydrase 9 (Homo sapiens, UniProt Q16790), item Cc1c(O)ccc2c(-c3cccc(Cl)c3)cc(=O)oc12 : 36.6

Form field, Ki with Carbonic anhydrase 9 (Homo sapiens, UniProt Q16790), item CC(=O)Oc1ccc2ccc(=O)oc2c1 [7-ACETOXYCOUMARIN] : 40.2

Form field, Ki with Carbonic anhydrase 9 (Homo sapiens, UniProt Q16790), item Cc1c(O)ccc2c(-c3ccccc3)cc(=O)oc12 : 39.5

Form field, Ki with Carbonic anhydrase 9 (Homo sapiens, UniProt Q16790), item Cc1c(O)ccc2c(-c3ccc([N+](=O)[O-])cc3)cc(=O)oc12 : 30.9

Form field, Ki with Carbonic anhydrase 9 (Homo sapiens, UniProt Q16790), item O=c1cc(-c2ccc(Cl)cc2)c2ccc(O)cc2o1 : 31.5

Form field, Ki with Carbonic anhydrase 9 (Homo sapiens, UniProt Q16790), item Cc1c(O)ccc2c(-c3ccccc3F)cc(=O)oc12 : 95.9

Form field, Ki with Carbonic anhydrase 9 (Homo sapiens, UniProt Q16790), item O=C(Oc1ccc2oc(=O)ccc2c1)c1ccccc1 : 29.9
